Provenance of the data: patent US6992193B2

# Target System: cloned human μ opioid receptor (Homo sapiens)
# Construct: expressed in transfected cells
# Sequence (P35372 whole entry): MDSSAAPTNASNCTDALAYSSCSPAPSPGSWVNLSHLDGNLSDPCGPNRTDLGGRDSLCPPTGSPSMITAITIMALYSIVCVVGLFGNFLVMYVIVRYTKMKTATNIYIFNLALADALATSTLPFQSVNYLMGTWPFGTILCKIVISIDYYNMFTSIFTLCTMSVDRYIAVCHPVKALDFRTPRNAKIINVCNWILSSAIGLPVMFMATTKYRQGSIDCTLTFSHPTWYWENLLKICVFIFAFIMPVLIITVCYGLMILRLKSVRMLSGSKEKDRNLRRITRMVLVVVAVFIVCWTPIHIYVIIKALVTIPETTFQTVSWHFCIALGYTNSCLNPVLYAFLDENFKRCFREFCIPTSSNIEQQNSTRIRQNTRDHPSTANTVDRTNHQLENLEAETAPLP
# Procedure Summary: [3H]diprenorphine binding to cloned human μ opioid receptor
# Settings: inhibition of [3H]diprenorphine binding, cloned human μ receptor; read-out: Ki(μ)
pKi: −log10 of the molar value. Where a name gives a salt, the structure may show the parent alone.
Measured pKi values are reported for all entries that follow.
Endpoint Name: pKi

- Compound: "Cc1ccc(S(=O)(=O)NCc2ccc(CC(=O)N(C)[C@H](CN3CC[C@H](O)C3)c3ccccc3)cc2)cc1 [Example 20, hydrochloride]"
  Target System: "cloned human μ opioid receptor (Homo sapiens)"
  Value: 6.15
- Compound: "CN(C(=O)Cc1ccc(CCNS(C)(=O)=O)cc1)[C@H](CN1CC[C@H](O)C1)c1ccccc1.Cl [Example 26, hydrochloride]"
  Target System: "cloned human μ opioid receptor (Homo sapiens)"
  Value: 6.10
- Compound: "CN(C(=O)Cc1cccc(CNS(C)(=O)=O)c1)[C@H](CN1CCCC1)c1ccccc1 [Example 11, hydrochloride]"
  Target System: "cloned human μ opioid receptor (Homo sapiens)"
  Value: 5.72
